Target: Neu5Ac(a2-3)Gal(b1-4)Glc
Assay: glycan array binding signal (z-score within array); higher = stronger binding
Details: glycan notation: IUPAC condensed, linker removed
Many of the other results were omitted from the sample, so the strongest signals are more common in it than they were.
So I've got a bunch of binders here, and I need their glycan array binding signal (z-score) values.
Reply: number alone, nothing else.

Task item: Specify reported glycan array binding signal (z-score) for the binder shown: Sebin1 (Coprinopsis cinerea), A8PEE3 (protein) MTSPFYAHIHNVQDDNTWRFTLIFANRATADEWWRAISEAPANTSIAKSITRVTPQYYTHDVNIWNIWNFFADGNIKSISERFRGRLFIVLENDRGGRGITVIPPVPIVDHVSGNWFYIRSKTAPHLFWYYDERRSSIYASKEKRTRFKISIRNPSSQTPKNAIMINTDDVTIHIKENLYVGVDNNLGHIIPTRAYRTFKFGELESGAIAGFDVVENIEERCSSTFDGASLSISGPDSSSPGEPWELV
Reply: 3.86

Task item: Give recorded glycan array binding signal (z-score). Sebin2 (Coprinopsis cinerea), A8PE78 (protein) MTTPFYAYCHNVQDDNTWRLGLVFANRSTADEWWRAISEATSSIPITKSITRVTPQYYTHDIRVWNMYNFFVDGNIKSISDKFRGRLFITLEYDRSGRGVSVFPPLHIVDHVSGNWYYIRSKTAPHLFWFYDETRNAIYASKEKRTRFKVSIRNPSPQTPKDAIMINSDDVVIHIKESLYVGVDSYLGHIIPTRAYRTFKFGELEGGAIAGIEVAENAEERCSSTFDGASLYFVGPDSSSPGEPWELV
Reply: 8.35

Task item: Find the measured glycan array binding signal (z-score) of PMA (Polygonatum multiflorum) (protein) LLTTTLFVFISSTRSLASTNVLYSDVGNAILNAKESLIYGDYRLDMQSDCNLVLYNKAAPYWASGTRWSWGGNCHLNLQSNGELVMYAYLGRTRIAIWRSGIISATGSYALVLKYDGALHVHGPSLWSTNATGPTTPTTASWSIDSTLWSGDVATIGPTIANGDYKLELLDTCNLTLSNTKTGQVLWYTNTTDWVHDCYVNIEGNGELKIKYLGGATLWSNKVGAGYTNNYVLGLRPDGKLDTYNAPIWSPTIGPGVHVAPAVYNASSNAVAAEGNGEKIAMVTGRAKNST and report it.
Reply: -0.233

Task item: Return glycan array binding signal (z-score) (reported value) for this binder: Thrombomodulin (Mus musculus) (protein) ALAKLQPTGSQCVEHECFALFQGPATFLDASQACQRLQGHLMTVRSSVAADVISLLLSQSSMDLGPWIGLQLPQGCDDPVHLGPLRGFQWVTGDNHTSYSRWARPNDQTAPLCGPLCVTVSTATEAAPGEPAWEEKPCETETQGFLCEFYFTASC
Reply: 2.91

Task item: Read off the recorded glycan array binding signal (z-score) for Cohesin-hMARCO (Homo sapiens) (protein) LDDLDAVRIKVDTVNAKPGDTVRIPVRFSGIPSKGIANCDFVYSYDPNVLEIIEIEPGDIIVDPNPDKSFDTAVYPDRKIIVFLFAEDSGTGAYAITKDGVFATIVAKVKEGAPNGLSVIKFVEVGGFANNDLVEQKTQFFDGGANVGDTTEPATPTTPVTTPTTTDDLDAASVRIVGSSNRGRAEVYYSGTWGTICDDEWQNSDAIVFCRMLGYSKGRALYKVGAGTGQIWLDNVQCRGTESTLWSCTKNSWGHHDCSHEEDAGVECSVHHHHHH
Reply: -0.436

Task item: Provide only the value of recorded glycan array binding signal (z-score) for LgFlo1 (Saccharomyces pastorianus), B3IUA8 (protein) SGSTQACLPVGSRKNGMNVNFYKYSLQDSTTYSDPQYMAYKYSDTKKLGSVSGQTHLSIYYGPNTAFWNTASWSSDLFGFYTTPTNVTVEMTGYFLPPQTGSYTFKFATVDDSAILSVGGSIAFECCAQEQPPITSTDFTINGIKPWDAATPTDIKGSTYMYAGYYYPIKIVYSNAKALARLPVSVVLPDGTEVNDDFEGYVYSFDDDLSQSNCTIPDPSKHTTS
Reply: 1.97

Origin of the recorded values: the supplement of paper PMC8728848
